Data provenance: PubChem BioAssay (EPA / NIEHS)

Read-out: Interleukin 6 (IL6), IL6 (gene 3569)
Assay Summary: LTEA_HepaRG_IL6: Life Technologies and Expression Analysis (LTEA) Assay for Interleukin 6 (IL6) using HepaRG (AID 2283509)
Condition Details: mRNA level, 48 h; actives raise or lower the signal
Calls of active or inactive are those of the source. The calls were made as follows: active = hit-call score of the fitted dose curve at least 0.9, where 1 is the maximum; inactive = score below 0.9.
Classes used: active, inactive

> print(dat)
                                    compound  classification
 1  CN(C)c1ccc(C(=C2C=CC(=[N+](C)C)C=C2)c2ccc(N(C)C)cc2)cc1          active
 2  Cc1occc1C(=O)Nc1ccc(C(=O)N2CCC(F)(F)/C(=C\C(=O)N3CCC(N4CCCCC4)CC3)c3ccccc32)cc1          active
 3                     CCCCOC(=O)c1ccc(O)cc1        inactive
 4                          Cc1ccc(C(C)C)cc1        inactive
 5                                 Oc1ccccc1        inactive
 6                CCCOC(=O)c1cc(O)c(O)c(O)c1        inactive
 7  CC(C)(C)c1cc(/C=C2\SC(N)=NC2=O)cc(C(C)(C)C)c1O          active
 8  CC(C)(c1cc(Br)c(O)c(Br)c1)c1cc(Br)c(O)c(Br)c1          active
 9  O=C1c2ccccc2C(=O)N1CCc1noc(-c2ccc(CN3CCCCCC3)s2)n1        inactive
10             O=C(O)c1ccccc1C(=O)OCc1ccccc1        inactive
11  OC12N=C(c3ccccc3)SC1Cc1cc(Cl)ccc12 (stereo not given)        inactive
12           CCCCCCCCOC(=O)c1cc(O)c(O)c(O)c1          active
13  O=C(O)c1ccccc1-n1cc(C(=O)O)c(=O)c2cc(Nc3c(F)cc(F)cc3Cl)c(Cl)cc21        inactive
14  NC(=O)c1nc(-c2cccc(-c3cc(F)ccc3OCC(F)(F)C(F)(F)F)c2)n[nH]1          active
15  CC1(C)NC(=O)N(c2ccc([N+](=O)[O-])c(C(F)(F)F)c2)C1=O          active
16  CC[C@H](NC(=O)c1cc(F)ccc1NS(=O)(=O)c1cccc2cccnc12)c1ccccc1        inactive
17    Clc1ccccc1C(c1ccccc1)(c1ccccc1)n1ccnc1          active
18                                      OCCO        inactive
19                 CCCCCCCC[Si](OCC)(OCC)OCC        inactive
20                             CCCCCCCCCCCCO        inactive
21  CCCCOC(=O)CC(CC(=O)OCCCC)(OC(C)=O)C(=O)OCCCC        inactive
22  COc1ccc2cc(S(=O)(=O)N[C@H](CC(=O)N[C@H](Cc3ccc(CN4[C@H](C)CCC[C@@H]4C)cc3)C(=O)N(C)C(C)C)c3ccc4c(c3)OCO4)ccc2c1          active
23  CCN(Cc1cccnc1)C(=O)c1cccc(Cl)c1[C@]1(C)C(=O)N(Cc2ccc(OC)cc2OC)c2ccc(Cl)cc21          active
24  C[C@]12CC[C@@H]3c4ccc(O)cc4CC[C@H]3[C@@H]1CC[C@H]2O        inactive
25                   CCCCCCCCCCCC[N+](C)(C)C          active
